test system: Leishmania braziliensis amastigotes; test: In vitro antileishmanial activity, intracellular amastigotes (EGFP, flow cytometry); format: cell-based; conditions: intracellular amastigotes in U-937 cells, 72 h, mean ± SD
MEASURE_NAME: EC50 (µg/mL)

[[record]]
compound = "COC(=O)/C=C/c1ccc(O)cc1 [Compound 1, methyl p-coumarate]"
value_measured = 8.28

[[record]]
compound = "CCCCCOC(=O)/C=C/c1ccc(O)cc1 [Compound 7, pentyl p-coumarate]"
value_measured = 32

[[record]]
compound = "CC(C)c1ccc(COC(=O)/C=C/c2ccc(O)cc2)cc1 [Compound 12, 4-isopropylbenzyl p-coumarate]"
value_measured = 11.2

[[record]]
compound = "CCCCCCCCCCCCOC(=O)/C=C/c1ccc(O)cc1 [Compound 10, dodecyl p-coumarate]"
value_measured = 16.3

[[record]]
compound = "C[C@@H]1[C@H](O)[C@@H](C)/C=C/C=C/C=C/C=C/C=C/C=C/C=C/[C@H](O[C@@H]2O[C@H](C)[C@@H](O)[C@H](N)[C@@H]2O)C[C@@H]2O[C@](O)(C[C@@H](O)C[C@@H](O)[C@H](O)CC[C@@H](O)C[C@@H](O)CC(=O)O[C@H]1C)C[C@H](O)[C@H]2C(=O)O [AMB, amphotericin B, reference compound]"
value_measured = 0.3

[[record]]
compound = "CCCCCCOC(=O)/C=C/c1ccc(O)cc1 [Compound 9, hexyl p-coumarate]"
value_measured = 4.14


* * *

Assay: in vitro
Method: The compounds were analyzed for viability of the human pro-monocytic cell line U-937 (ATCC CRL- 1593.2TM) using an MTT (3-(4,5-dimethylthiazol-2-yl)-2,5- diphenyltetrazolium bromide) assay based on a previously described methodology, assessing cytotoxic activity. The resulting compounds were determined by measuring mitochondrial dehydrogenase activity, adding […] of MTT solution (0.5 mg/mL) and incubation at 37 °C for 3 h. […]
# Lookup of reported CC50 keyed by entry
MEASURE_NAME: CC50

[[record]]
compound = "CCCCCCOC(=O)/C=C/c1ccc(O)cc1 [Compound 9, hexyl p-coumarate]"
value_measured = "11.2 µg/mL"

[[record]]
compound = "CCCOC(=O)/C=C/c1ccc(O)cc1 [Compound 3, propyl p-coumarate]"
value_measured = "11.9 µg/mL"

[[record]]
compound = "C[C@@H]1[C@H](O)[C@@H](C)/C=C/C=C/C=C/C=C/C=C/C=C/C=C/[C@H](O[C@@H]2O[C@H](C)[C@@H](O)[C@H](N)[C@@H]2O)C[C@@H]2O[C@](O)(C[C@@H](O)C[C@@H](O)[C@H](O)CC[C@@H](O)C[C@@H](O)CC(=O)O[C@H]1C)C[C@H](O)[C@H]2C(=O)O [AMB, amphotericin B, reference compound]"
value_measured = "38.4 µg/mL"

[[record]]
compound = "CC(C)c1ccc(COC(=O)/C=C/c2ccc(O)cc2)cc1 [Compound 12, 4-isopropylbenzyl p-coumarate]"
value_measured = "35.2 µg/mL"

[[record]]
compound = "COC(=O)/C=C/c1ccc(O)cc1 [Compound 1, methyl p-coumarate]"
value_measured = "6.26 µg/mL"

[[record]]
compound = "CCCCOC(=O)/C=C/c1ccc(O)cc1 [Compound 6, butyl p-coumarate]"
value_measured = "30.9 µg/mL"


* * *

Reported EC50 by item:
tested on: Plasmodium falciparum 3D7; experiment: In vitro antiplasmodial activity (LDH, Malstat); assay type: cell-based; settings: Plasmodium falciparum, 3D7, 48 h, read-out: Plasmodium falciparum EC50, 3D7 strain, 48 h; mean ± SD
MEASURE_NAME: EC50 (µg/mL)

[[record]]
compound = "CCCCCCCCCCCCOC(=O)/C=C/c1ccc(O)cc1 [Compound 10, dodecyl p-coumarate]"
system_tested = "Plasmodium falciparum 3D7"
value_measured = 81.2

[[record]]
compound = "CCCCOC(=O)/C=C/c1ccc(O)cc1 [Compound 6, butyl p-coumarate]"
system_tested = "Plasmodium falciparum 3D7"
value_measured = 199

[[record]]
compound = "COCCOC(=O)/C=C/c1ccc(O)cc1 [Compound 5, methoxy-ethyl p-coumarate]"
system_tested = "Plasmodium falciparum 3D7"
value_measured = 98.7

[[record]]
compound = "CC(C)OC(=O)/C=C/c1ccc(O)cc1 [Compound 4, isopropyl p-coumarate]"
system_tested = "Plasmodium falciparum 3D7"
value_measured = 106

[[record]]
compound = "CCCCCOC(=O)/C=C/c1ccc(O)cc1 [Compound 7, pentyl p-coumarate]"
system_tested = "Plasmodium falciparum 3D7"
value_measured = 156

[[record]]
compound = "CCOC(=O)/C=C/c1ccc(O)cc1 [Compound 2, ethyl p-coumarate]"
system_tested = "Plasmodium falciparum 3D7"
value_measured = 110

[[record]]
compound = "CCCCCCOC(=O)/C=C/c1ccc(O)cc1 [Compound 9, hexyl p-coumarate]"
system_tested = "Plasmodium falciparum 3D7"
value_measured = 206

[[record]]
compound = "CCCOC(=O)/C=C/c1ccc(O)cc1 [Compound 3, propyl p-coumarate]"
system_tested = "Plasmodium falciparum 3D7"
value_measured = 139

[[record]]
compound = "CC(C)CCOC(=O)/C=C/c1ccc(O)cc1 [Compound 8, isopentyl p-coumarate]"
system_tested = "Plasmodium falciparum 3D7"
value_measured = 95.5

[[record]]
compound = "CC(C)c1ccc(COC(=O)/C=C/c2ccc(O)cc2)cc1 [Compound 12, 4-isopropylbenzyl p-coumarate]"
system_tested = "Plasmodium falciparum 3D7"
value_measured = 93.7

[[record]]
compound = "Cc1ccc(COC(=O)/C=C/c2ccc(O)cc2)cc1 [Compound 11, 4-methylbenzyl p-coumarate]"
system_tested = "Plasmodium falciparum 3D7"
value_measured = 84


* * *

System: Leishmania braziliensis amastigotes
Assay: In vitro antileishmanial activity, intracellular amastigotes (EGFP, flow cytometry)
Format: cell-based
Details: intracellular amastigotes in U-937 cells, 72 h, mean ± SD
Method: The activities of the derivatives in L. braziliensis intracellular amastigotes, transfected with the green fluorescent protein gene (MHOM/CO/88/UA301-EGFP) were evaluated. […] The cells were run in a flow cytometer (Cytomics FC 500MPL), reading at 488 nm (exciting) and 525 nm (emitting) over an argon laser, and counting 10,000 events. Infected cells were determined according to green fluorescence events (parasites). […]
Reported log10(EC50) values follow for various compounds
MEASURE_NAME: log10(EC50) (log10 of the value in µg/mL)

[[record]]
compound = "COCCOC(=O)/C=C/c1ccc(O)cc1 [Compound 5, methoxy-ethyl p-coumarate]"
measure_name = "log10(EC50)"
value_measured = 1.94

[[record]]
compound = "Cc1ccc(COC(=O)/C=C/c2ccc(O)cc2)cc1 [Compound 11, 4-methylbenzyl p-coumarate]"
measure_name = "log10(EC50)"
value_measured = 0.76

[[record]]
compound = "CCCCOC(=O)/C=C/c1ccc(O)cc1 [Compound 6, butyl p-coumarate]"
measure_name = "log10(EC50)"
value_measured = 2.51

[[record]]
compound = "CCOC(=O)/C=C/c1ccc(O)cc1 [Compound 2, ethyl p-coumarate]"
measure_name = "log10(EC50)"
value_measured = 0.69

[[record]]
compound = "CC(C)OC(=O)/C=C/c1ccc(O)cc1 [Compound 4, isopropyl p-coumarate]"
measure_name = "log10(EC50)"
value_measured = 1.45

[[record]]
compound = "CC(C)CCOC(=O)/C=C/c1ccc(O)cc1 [Compound 8, isopentyl p-coumarate]"
measure_name = "log10(EC50)"
value_measured = 0.78

[[record]]
compound = "CCCOC(=O)/C=C/c1ccc(O)cc1 [Compound 3, propyl p-coumarate]"
measure_name = "log10(EC50)"
value_measured = 0.80

